Source: the supplement of paper PMC9732359

Attribute: protein stability index
PROCEDURE SUMMARY: protein stability index of a GFP-peptide fusion (yeast GPS) (PSI 1-4); higher = more stable; sorted into four equal gates, so the index is relative within each strain
TEST CONDITIONS: san1∆
Lab note: record the figure alone, no unit after it.

{"SEQUENCE TEXT": "NGGNNTQQPGTNSHYNN [SNF2]", "protein stability index": 3.04}
{"SEQUENCE TEXT": "NKDASLALQRGATVFVN [DPB4]", "protein stability index": 2.88}
{"SEQUENCE TEXT": "IPLNRLSLDSDVKFPSN [SMC3]", "protein stability index": 2.05}

For the next question, use this sequence.
query: Which protein stability index value is on record for EYAALASLADVMSIESL [FAS1] ?
result: 3.14
